Numbers sourced from BigSolDB 2.1.

reported-conditions: in isobutanol, 298.15 K

>  <compound>
CC(CCc1ccccc1)NCC(O)c1ccc(O)c(C(N)=O)c1.Cl (stereo unspecified)

>  <solubility (mole fraction)>
0.000257

$$$$

###

reported-conditions: in ethyl acetate, 298.15 K

>  <molecule>
CC(CCc1ccccc1)NCC(O)c1ccc(O)c(C(N)=O)c1.Cl (stereo unspecified)

>  <solubility (mole fraction)>
0.000237

$$$$

###

reported-conditions: in isobutanol, 318.15 K
readout: solubility (mole fraction)

>  <compound>
CC(CCc1ccccc1)NCC(O)c1ccc(O)c(C(N)=O)c1.Cl (stereo unspecified)

>  <readout>
solubility (mole fraction)

>  <val>
0.000729

$$$$
